Listing of recorded self-cleavage by entry.
B1: Twister Ribozyme (parent)
chain: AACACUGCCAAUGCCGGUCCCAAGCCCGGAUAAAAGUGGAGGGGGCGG

# Variants of: B1
# procedure.summary: self-cleavage, relative activity (ratio to wild type); higher = more cleavage; co-transcriptional
No unit in the answer, only the number.

>  <variant.string>
C14U G41A

>  <val>
0.698

$$$$

Continue with the next variant.
QUERY: I have this variant here, A33G U37G , and I need its recorded self-cleavage.
RESULT: 0.601
